Collected protein stability index values appear next to each entry.
System: Saccharomyces cerevisiae
METHOD_NOTES: protein stability index of tFT-peptide fusion (C-terminal peptide) (PSI (0-1 scale)); higher = more stable (slower turnover)
STUDY_CONDITIONS: genetic background: wild type; temperature: 30 C
Lab note: write the figure by itself, no unit.

Query :: Give recorded protein stability index with Saccharomyces cerevisiae for the following sequence: GFLVPSSPRCHQ
Result :: 0.681

Query :: So what protein stability index did VGFCICISIMSF get with Saccharomyces cerevisiae?
Result :: 0.108

Query :: Hello, I am looking for reported protein stability index with Saccharomyces cerevisiae for GPFGVGALVCCM . Could you help?
Result :: 0.351

Query :: Fill in the recorded protein stability index for this sequence, with Saccharomyces cerevisiae as test system: VWCVFHVWSGRL
Result :: 0.409

Continue with the next sequence.
Query :: Test system Saccharomyces cerevisiae; read-out protein stability index; what value for VCQVCVCFLFWR ?;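 also: PSI is a weighted mean of sequencing reads over stability bins, variants kept only with over 10 reads, mCherry proximal and sfGFP distal, peptide attached via GGGS linker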
Result :: 0.139
